Test system: SNB-19 CNS
Test: NCI-60 one-dose screen, 48 h (100 = growth as untreated, 0 = no growth, -100 = all killed)
Conditions: 10 µM unless noted
Compounds without any hit were thinned out: in the full panel of roughly 83,000, 20% have a hit.
Kindly supply the reported growth values for the records listed here.
Write the number in % without appending the unit.

Request: What value of growth has been reported for the following molecule? `O=C1[C@@H]2Cc3c([nH]c4ccccc34)[C@@H](c3ccc(Cl)cc3)N2C(=O)CN1C1CCN(Cc2ccccc2)CC1`
Result: 50.5

Request: Please look up its growth: `NC(N)=NS(=O)(=O)c1ccc(N=Nc2c(N)nn(-c3ccc([N+](=O)[O-])cc3[N+](=O)[O-])c2N)cc1`
Result: 99.8

Request: Any idea what its growth is? The molecule is `Cn1cc(-c2nc(N)nnc2-c2c[nH]c3ccc(Br)cc23)c2cc(F)ccc21`
Result: 88

Request: // query growth value for entry `O=C1/C(=C/c2cc(F)cc(F)c2)Cc2cc3c(cc21)OCO3`
Result: 49.7

Request: Tell me the measured growth of `O=S(=O)(NCCCNc1nccc(-c2[nH]c(-c3ccccc3)nc2-c2ccc(F)c(O)c2)n1)c1cccc(F)c1` , please.
Result: 110

Request: // lookup growth for `O=C1C(SCc2ccccc2)=C(Cl)CN1c1ccccc1`
Result: 96.2

Request: Given the entry `C=C(C)[C@@H]1CC[C@]2(C(=O)NC3CCCCC3)CC[C@]3(C)[C@H](CC[C@@H]4[C@@]5(C)CC[C@H](N)C(C)(C)[C@@H]5CC[C@]43C)[C@@H]12` , report its measured growth.
Result: 103

Request: Need growth of `COc1ccc(OC)c(NC(=O)CCCCCCNC(=O)C(O)(O)C(F)(F)F)c1` , thanks.
Result: 63.5

Request: Need growth, item `Brc1ccc(-c2cc(-c3ccc4c(c3)OCCO4)n[nH]2)s1`
Result: 42.6

Request: Given the molecule `Cn1cc(-c2nnc(N)nc2-c2c[nH]c3ccc(Br)cc23)c2cc(Br)ccc21` , what is its reported growth?
Result: 98.7

Request: Bench note: what growth did `Cc1ccc(NC(=O)Nc2nc3ccc([N+](=O)[O-])cc3s2)cc1` show?
Result: 11.3

Request: Can you look up the measured growth of `COc1ccc(-c2c3c(cn2Cc2cccc(OC)c2)-c2oncc2CCC3)cc1` for me?
Result: 93.4

Request: Requested read-out: growth. Entry: `CNC(=O)c1cc(N2CCc3cc(NC(=O)Nc4ccc(N5CCN(C)CC5)c(C(F)(F)F)c4)ccc32)ccn1`
Result: 81.5

Request: Please look up its growth: `C#C[C@]1(O)CC[C@H]2[C@@H]3CC=C4c5sc(Nc6ccc(C)cn6)nc5CC[C@]4(C)[C@H]3CC[C@@]21C`
Result: -21.2

Request: # input molecule: `COc1ccc2c(c1)c(-c1nn3cc(-c4ccncc4)nc3s1)cn2C` ; wanted: its growth
Result: 86.1

Request: For `CC(=O)Nc1nc(C)c(-c2csc(Nc3ccccc3)n2)s1` , what is its reported growth?
Result: 35.8

Request: Suppose we examine the molecule `N#Cc1c(-c2ccc(Br)cc2)cc(-c2c[nH]c3ccccc23)nc1N` ; what growth value has been reported?
Result: 66.1

Request: Would you mind telling me what growth value was observed for `N#Cc1nc(-c2ccccc2)oc1N1CCC(C2(C(F)(F)F)N=N2)CC1` ?
Result: 102

Request: What does the record list as growth for `CCOC(=O)c1c(N)c(C#N)cn1Cc1ccc(Cl)cc1Cl` ?
Result: 68.7

Source listed as PubChem BioAssay (NCI).
